test system: K4 kissing-loop RNA reporter; experiment: apparent KD of K4 kissing-loop reporter; higher = weaker reporter binding; conditions: Eterna round: R107; input ligand: FMN 200 uM
apparent KD of K4 kissing-loop reporter class ranges: class 1 = under 200 nM, class 2 = from 200 nM up to 400 nM, class 3 = 400 nM and over

Prompt line: Using the reported apparent KD of K4 kissing-loop reporter, which band applies to GCUAUGGUAGGAAGGAGCGCUUACUCGGUAAUAAGAGUGAUGUUCGAUACCGAGUAUUUAUAGCAGGUAGGUCGCCUACUAUAGC [Arginine B K4 5] ?
Response line: class 2

Prompt line: Using the reported apparent KD of K4 kissing-loop reporter, which band applies to UUAGAGAUCUCAGGAUAUGAGUGAUGUUGGUGUCAAGAUCUGAGAUAGAAUUCUAUCUCAGAUCAAUCAGAAGGGAGAUCUCAUU [AK2.2 Exc FMN B] ?
Response line: class 2

Prompt line: Using the reported apparent KD of K4 kissing-loop reporter, which band applies to GCCGUACGCAUGGAUACCAGUCAAGAUCAGUGAUGUUGAUCUUUUAUAGAGCCUACAUUUGACCCUUGGCAGCCAUGCGUACGGC ?
Response line: class 2

Prompt line: Using the reported apparent KD of K4 kissing-loop reporter, which band applies to AAAUUUAAUAUAUUUAAUUAAUUAAGUGAUACCAGACAUUAAUAAGUCCCUUGGCAGCGCAAUGCAGUGAUGUUGCUUAUAAUAA [#18 K4 Theophylline A Same State] ?
Response line: class 1

Prompt line: Using the reported apparent KD of K4 kissing-loop reporter, which band applies to UAUACUAGACAAGAGAGAAUUCUCUCAAGAGAGGAUAUCCGAAUUCGGAGAAGGCUCUCUAAGUGAUGUUUGGAAUAGUCUAGAA [AK5 SS FMN A] ?
Response line: class 3

Prompt line: Using the reported apparent KD of K4 kissing-loop reporter, which band applies to AGGCACGAGCAAGGAUAUUGAGUAGAGUGAUGUUCUGCCUAAGUUGGCUCGAAAGAGCCUUCUUAGCGAGAAGGUGCUCGUGCCU [#2 Same State - FMN A Attempt #26 (HarryS)] ?
Response line: class 2

Prompt line: Using the reported apparent KD of K4 kissing-loop reporter, which band applies to GGCCACGGGCGAGGAUAUGGGCAUGAUUCAUCCUGGAGUGAUGUUCCAGGUCCUACGUUUCUAGCACCAGAAGGCGUUUGUUGCU [Enistein] ?
Response line: class 1

Prompt line: Using the reported apparent KD of K4 kissing-loop reporter, which band applies to AAUCCUAACGGAGUGAUGUUCCGUAGCGAUACCAGCCAUUGCGAUGGCCCUUGGCAGCGCUAUAAGCAUUGCUAGUAAGGGCCAA [Theo A Ex t7] ?
Response line: class 1

Prompt line: Using the reported apparent KD of K4 kissing-loop reporter, which band applies to AUAUAAGUCGGAGGAUAUCCAGUGAUGUUAUGUUGUGAUGUUUAGUGAUGUUAGGCAUCAGUGAAGGGAGAAGGCCGUAAGUGAU [APPLE] ?
Response line: class 1

Prompt line: Using the reported apparent KD of K4 kissing-loop reporter, which band applies to CGAGCGGAGUGAUGUUCCGUGCCAGCAGAUACCAGAUUGAAAGAGAUCCCUUGGCAGCUGCGUCACACCCUUACGUGAUAGGACC [theeternabot_sameState_KL_Theo_A_32] ?
Response line: class 2

Prompt line: Using the reported apparent KD of K4 kissing-loop reporter, which band applies to GGAUCCACCAGUGAUGUUGGAGAAAACUCCGAGGAUAUGACGAAAGUCAGAAGGUGGUAGACUGGACAAAGUCCGGUCGGAUCCA [FmnA 24 #SwitchBubble #K4Early] ?
Response line: class 3

Prompt line: Using the reported apparent KD of K4 kissing-loop reporter, which band applies to UUGGAAAUCAGAAGGAGCGUCUAAAAUAAGAGAACCAGUGAUGUUGGUUUUAUUUAAUGAAGACAGGUAGGUCGCUGAAUUUUUA [Same State Arginie B GF 19] ?
Response line: class 1

Prompt line: Using the reported apparent KD of K4 kissing-loop reporter, which band applies to UGACUGGACUGAAGGAGCGCUUAACUCCUAGUGAUGUUAGGAUAACGAGACAAAGUCUCGAAGCAGGUAGGUCGCAGUCUAGUCU ?
Response line: class 1

Prompt line: Using the reported apparent KD of K4 kissing-loop reporter, which band applies to UUGGAGUGAUGUUCCAUGUCUUGAGCCGAAGGAGCGCCUUUCUAGGCAGGUAGGUCGCGGCAGAAGGUACCAGUGAUGUUGGAAA [Same State Arginine A GF9] ?
Response line: class 1

Prompt line: Using the reported apparent KD of K4 kissing-loop reporter, which band applies to UGUCAUUGGUCUGAUACCAGUUGGGACGAAUACGUCCAACUGGAGUGAUGUUCCUAAAACAACCCUUGGCAGCAGACCGAUGACU [TheoBS 13 #SwitchBubble 13 #StaticStem] ?
Response line: class 3

Prompt line: Using the reported apparent KD of K4 kissing-loop reporter, which band applies to UAUUGCCACAGAGUGAUGUUCUGGCCGGAUACCAGCAUGCAAUUAUGCCCUUGGCAGCCGGAUGCGCGUCCAGCCACCGGGCCUG [theeternabot_exclusion_KL_Theo_A_29] ?
Response line: class 3

Prompt line: Using the reported apparent KD of K4 kissing-loop reporter, which band applies to UAUGUACACGGGUAGUUGUACAUCGAGGAAGGAGCGUGCGCAGGCACAGGUAGGUCGCCUCAGCGCACGAGUGAUGUUCGUGGGC [Xexegeus] ?
Response line: class 2

Prompt line: Using the reported apparent KD of K4 kissing-loop reporter, which band applies to UUCUUGAUGGAAACAUCGAGGAUUACUGAUACCAGUAUCGAUAGAUACCCUUGGCAGCAGAAUCAGUAAUCACGAGUGAUGUUCG [Ex Theophylline A K4 6] ?
Response line: class 3

Prompt line: Using the reported apparent KD of K4 kissing-loop reporter, which band applies to UGUCUUUUUUUGAUGUUUUUUGUAUAAUGGCAGGAUAUCGUAGAGGCGAGAAGGGCUUUUAUGCGUUAUGAGUGAUGUUUGUAGG [vevvmullin] ?
Response line: class 2

Prompt line: Using the reported apparent KD of K4 kissing-loop reporter, which band applies to AAUUACCUAGUGAUGUUGGGAAUAAUAUAACGAGGACCGGUACGGCCGCCACUCGAGGUCCUAAUUAAGAACGCGAAAGCGAAGA [Tryptophan A Exclusion; Euphoria Solution] ?
Response line: class 1

Prompt line: Using the reported apparent KD of K4 kissing-loop reporter, which band applies to UAGUUGCCGGUUUGUAGGCUUCGGCAGUGGGAGGAUAUGUUGACCGACAGAAGGCCCAGUGAUGUUGGGCGAUUGGCGGUGAGAU [Antebear] ?
Response line: class 1

Prompt line: Using the reported apparent KD of K4 kissing-loop reporter, which band applies to UGUACCGAGUCAGGAUAUGGCGUCGAAAGACGAAUGCUAGUGAUGUUAGGGAUCUGCGAAAGCAGUCUAGAAGGGACUUGGUACU [FmnBS 26 G36+U68] ?
Response line: class 2

Prompt line: Using the reported apparent KD of K4 kissing-loop reporter, which band applies to AGUGCACUGUCAGGAUAUAUACAGUGAUGUUGUGUAUGUCAGCAAGUCAAAGACUUGCUAUUCUGUGUAGAAGGGACUGUGUACA [Omei KL FMN B Exc A v1] ?
Response line: class 3

###

tested on: K4 kissing-loop RNA reporter; assay: apparent KD of K4 kissing-loop reporter; higher = weaker reporter binding; conditions: Eterna round: R107; input ligand: theophylline 20 uM;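 further: bound reporter read as fluorescence of individual clusters on recovered sequencing chips by microscopy, with normalized cluster intensities fitted with a binding model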
Record form. Attribute: apparent KD of K4 kissing-loop reporter. Fill in for each entry.
Give the quantity in nM, number only.

Prompt line: Specify apparent KD of K4 kissing-loop reporter for AAAUAAUAAAUGCAGCCAGUGAUGUUGGAAGGAGCGUGCGAAAGCACAGGUAGGUCGCCAACCAAAGCUGGAAACAGCAACUGCA [#SwitchBubble 3 #K4Early] and stop.
Response line: 129

Prompt line: Specify apparent KD of K4 kissing-loop reporter for AAUUUAUUAACUGAUACCAGACUUUAGCGUGUUUAUAAGUCAAGUGAUGUUUGACUAUUAGUCCCUUGGCAGCAGUAUUUAUUAA [JR_SSTheophyB_Sub022] and stop.
Response line: 114

Prompt line: Specify apparent KD of K4 kissing-loop reporter for GCUAAGGAGUGAUGUUCCAAGUGAUGUUAACGAGGACCGGUACGGCCGCCACUCGAUACGGCCGGAAAGUAAGAUAAACUACAGC [Same State - Tryptophan A (Freestyle 5)] and stop.
Response line: 89.3

Prompt line: Specify apparent KD of K4 kissing-loop reporter for AAAAUAGAUCAGUGAUGUUGGUGUCUGGAUACCAGCGAUAAUAGUCGCCCUUGGCAGCCAUGGACGUACAAAAUAAGUACGUCCU [MatMod 20 - Jieux - Same State - Theophylline A] and stop.
Response line: 285

Prompt line: Specify apparent KD of K4 kissing-loop reporter for AGGGUUAAUUAGUCUUUUUUCACAUUAAGUCAGGAUAUCGUAUUUUCGAGAAGGGACACAUGCUAGUGAUGUUAGCUAUUUCCCA [#02 K4 FMN A Exclusion] and stop.
Response line: 122

Prompt line: Specify apparent KD of K4 kissing-loop reporter for AGGUCACUACUACAGUGAUGUUGUGGAGAGCAGGAUAUGCAGAAAUGCAGAAGGGCUCGCUCUCAGUGACCGAAUGAAACAUUCA [Omei KL FMN A SS A v8] and stop.
Response line: 566

Prompt line: Specify apparent KD of K4 kissing-loop reporter for CAUUACGGUCGCUUACCAAACCACUACUUCCGAGGACCGGUACGGCCGCCACUCGCCAGUGAUGUUGGCUCGGGCGGCCGAUUAU [Orrebeante] and stop.
Response line: 97.9

Prompt line: Specify apparent KD of K4 kissing-loop reporter for AGGUCCGAGCCCGGAAGGGCUCGGACCUGUUAGGAUAUGACGUGAUUCAGAAGGGAUGGGUGGAGUGAUGUUCCACCCGAGAGGG [#2 Same State - FMN A Attempt #20 (HarryS)] and stop.
Response line: 102

Prompt line: Specify apparent KD of K4 kissing-loop reporter for GUUACGCAUGGAAGGAGCGCACUCCGAUUGGUCGACACAGUGAUGUUGUGGUUCGUUCGAAUGCAGGUAGGUCGCCAUGUGUAAC [Ex Arginine B K4 18] and stop.
Response line: 145

Prompt line: Specify apparent KD of K4 kissing-loop reporter for UGGCGAGUGAUGUUCGUUGUUGUAGUGUGCCGAGGACCGGUACGGCCGCCACUCGGGUUGGUUGUUGUUGUUGUUGUUGUUGUUG [whbob_SS_tryp_A] and stop.
Response line: 119

Prompt line: Specify apparent KD of K4 kissing-loop reporter for AAUUACCUAGUGAUGUUGGGAAUAAUAUAACGAGGACCGGUACGGCCGCCACUCGAGGUCCUAAUUAAGAACGCGAAAGCGAAGA [Tryptophan A Exclusion; Euphoria Solution] and stop.
Response line: 66.8
